procedure details: in vivo
applied conditions: male, mouse, kidney, ip, 30 mg/kg
Non-standard residues stand in square brackets, D forms with d. Residues, ends and D or L forms follow the SMILES beside them. Dmt = Cc1cc(O)cc(C)c1C[C@H](N)C(=O)O

{"compound": "Cc1cc(O)cc(C)c1C[C@H](NC(=O)[C@H](N)CCCNC(=N)N)C(=O)N[C@@H](CCCCN)C(=O)N[C@@H](Cc1ccccc1)C(N)=O [SS-31, D-Arg-dimethylTyr-Lys-Phe-NH2] (H-[dR][Dmt]KF-NH2)", "AUC(0-inf), ng·h/mL": 31300}

----------
procedure details: in vivo
applied conditions: male, mouse, liver, ip, 30 mg/kg
Non-standard residues stand in square brackets, D forms with d. Residues, ends and D or L forms follow the SMILES beside them. Dmt = Cc1cc(O)cc(C)c1C[C@H](N)C(=O)O
measurement kind: AUC(0-inf) (ng·h/mL)

{"compound": "Cc1cc(O)cc(C)c1C[C@H](NC(=O)[C@H](N)CCCNC(=N)N)C(=O)N[C@@H](CCCCN)C(=O)N[C@@H](Cc1ccccc1)C(N)=O [SS-31, D-Arg-dimethylTyr-Lys-Phe-NH2] (H-[dR][Dmt]KF-NH2)", "measurement kind": "AUC(0-inf)", "quantity unit": "ng·h/mL", "test result": 22100}

----------
procedure details: in vivo
applied conditions: male, mouse, plasma, ip, 30 mg/kg
Non-standard residues stand in square brackets, D forms with d. Residues, ends and D or L forms follow the SMILES beside them. Dmt = Cc1cc(O)cc(C)c1C[C@H](N)C(=O)O

{"molecule": "Cc1cc(O)cc(C)c1C[C@H](NC(=O)[C@H](N)CCCNC(=N)N)C(=O)N[C@@H](CCCCN)C(=O)N[C@@H](Cc1ccccc1)C(N)=O [SS-31, D-Arg-dimethylTyr-Lys-Phe-NH2] (H-[dR][Dmt]KF-NH2)", "Cmax": "20000 ng/mL"}

----------
procedure details: in vivo
applied conditions: male, mouse, plasma, ip, 30 mg/kg
Protocol: For PK evaluation, SS-31 was administered i.p. to male mice in suspension (gelatine/saline 7.5%/0.62% in water) using an administration volume of 4 ml/kg. […] All samples were analyzed using protein precipitation followed by LC-MS/MS analysis. […] Ten microliters of supernatant was analyzed by LC/MS. […] PK parameters for all studies were calculated using Phoenix WinNonlin Software.
Non-standard residues stand in square brackets, D forms with d. Residues, ends and D or L forms follow the SMILES beside them. Dmt = Cc1cc(O)cc(C)c1C[C@H](N)C(=O)O

{"molecule": "Cc1cc(O)cc(C)c1C[C@H](NC(=O)[C@H](N)CCCNC(=N)N)C(=O)N[C@@H](CCCCN)C(=O)N[C@@H](Cc1ccccc1)C(N)=O [SS-31, D-Arg-dimethylTyr-Lys-Phe-NH2] (H-[dR][Dmt]KF-NH2)", "quantity unit": "ng·h/mL", "AUC(0-inf)": 21100}

----------
procedure details: in vivo
applied conditions: male, mouse, kidney, ip, 30 mg/kg
Non-standard residues stand in square brackets, D forms with d. Residues, ends and D or L forms follow the SMILES beside them. Dmt = Cc1cc(O)cc(C)c1C[C@H](N)C(=O)O

{"compound": "Cc1cc(O)cc(C)c1C[C@H](NC(=O)[C@H](N)CCCNC(=N)N)C(=O)N[C@@H](CCCCN)C(=O)N[C@@H](Cc1ccccc1)C(N)=O [SS-31, D-Arg-dimethylTyr-Lys-Phe-NH2] (H-[dR][Dmt]KF-NH2)", "level at time molar": "~140 nM"}

----------
procedure details: in vivo
applied conditions: male, mouse, kidney, ip, 30 mg/kg
Non-standard residues stand in square brackets, D forms with d. Residues, ends and D or L forms follow the SMILES beside them. Dmt = Cc1cc(O)cc(C)c1C[C@H](N)C(=O)O

{"molecule": "Cc1cc(O)cc(C)c1C[C@H](NC(=O)[C@H](N)CCCNC(=N)N)C(=O)N[C@@H](CCCCN)C(=O)N[C@@H](Cc1ccccc1)C(N)=O [SS-31, D-Arg-dimethylTyr-Lys-Phe-NH2] (H-[dR][Dmt]KF-NH2)", "Cmax / ng/mL": 17200}

----------
procedure details: Stability in mouse plasma at 37°C
Type: in vitro ADME
applied conditions: heparinized mouse plasma, time 5 h, read-out: Stability [% of T0]
Non-standard residues stand in square brackets, D forms with d. Residues, ends and D or L forms follow the SMILES beside them. Dmt = Cc1cc(O)cc(C)c1C[C@H](N)C(=O)O
Below, each of the compounds is paired with its reported remaining at 5 h, 1 µM value.

{"compound": "Cc1cc(O)cc(C)c1C[C@H](NC(=O)[C@@H](CCCNC(=N)N)NC(=O)[C@@H](N)CCC(=O)O)C(=O)N[C@@H](CCCCN)C(=O)N[C@@H](Cc1ccccc1)C(N)=O [α-Glu-SS-31, H-Glu-D-Arg-DMT-Lys-Phe-NH 2 .2TFA] (H-E[dR][Dmt]KF-NH2)", "remaining at 5 h, 1 µM [%]": 65.8}
{"compound": "Cc1cc(O)cc(C)c1C[C@H](NC(=O)[C@H](N)CCCNC(=N)N)C(=O)N[C@@H](CCCCN)C(=O)N[C@@H](Cc1ccccc1)C(N)=O [SS-31, D-Arg-dimethylTyr-Lys-Phe-NH2] (H-[dR][Dmt]KF-NH2)", "remaining at 5 h, 1 µM [%]": 43}

----------
procedure details: in vivo
applied conditions: male, mouse, kidney, ip, 30 mg/kg
Non-standard residues stand in square brackets, D forms with d. Residues, ends and D or L forms follow the SMILES beside them. Dmt = Cc1cc(O)cc(C)c1C[C@H](N)C(=O)O

{"compound": "Cc1cc(O)cc(C)c1C[C@H](NC(=O)[C@H](N)CCCNC(=N)N)C(=O)N[C@@H](CCCCN)C(=O)N[C@@H](Cc1ccccc1)C(N)=O [SS-31, D-Arg-dimethylTyr-Lys-Phe-NH2] (H-[dR][Dmt]KF-NH2)", "Tmax [h]": 1}

----------
procedure details: in vivo
applied conditions: male, mouse, plasma, ip, 30 mg/kg
Experimental: For PK evaluation, SS-31 was administered i.p. to male mice in suspension (gelatine/saline 7.5%/0.62% in water) using an administration volume of 4 ml/kg. […] All samples were analyzed using protein precipitation followed by LC-MS/MS analysis. […] Ten microliters of supernatant was analyzed by LC/MS. […] PK parameters for all studies were calculated using Phoenix WinNonlin Software.
Non-standard residues stand in square brackets, D forms with d. Residues, ends and D or L forms follow the SMILES beside them. Dmt = Cc1cc(O)cc(C)c1C[C@H](N)C(=O)O

{"compound": "Cc1cc(O)cc(C)c1C[C@H](NC(=O)[C@H](N)CCCNC(=N)N)C(=O)N[C@@H](CCCCN)C(=O)N[C@@H](Cc1ccccc1)C(N)=O [SS-31, D-Arg-dimethylTyr-Lys-Phe-NH2] (H-[dR][Dmt]KF-NH2)", "half-life / min": 18}

----------
procedure details: Stability in mouse plasma at 37°C
Assay type: in vitro ADME
applied conditions: heparinized mouse plasma, time 1 h, read-out: Stability [% of T0]
Non-standard residues stand in square brackets, D forms with d. Residues, ends and D or L forms follow the SMILES beside them. Dmt = Cc1cc(O)cc(C)c1C[C@H](N)C(=O)O
measurement kind: remaining at 1 h, 1 µM (%)

{"compound": "Cc1cc(O)cc(C)c1C[C@H](NC(=O)[C@H](N)CCCNC(=N)N)C(=O)N[C@@H](CCCCN)C(=O)N[C@@H](Cc1ccccc1)C(N)=O [SS-31, D-Arg-dimethylTyr-Lys-Phe-NH2] (H-[dR][Dmt]KF-NH2)", "test result": 85.3}
{"compound": "Cc1cc(O)cc(C)c1C[C@H](NC(=O)[C@@H](CCCNC(=N)N)NC(=O)[C@@H](N)CCC(=O)O)C(=O)N[C@@H](CCCCN)C(=O)N[C@@H](Cc1ccccc1)C(N)=O [α-Glu-SS-31, H-Glu-D-Arg-DMT-Lys-Phe-NH 2 .2TFA] (H-E[dR][Dmt]KF-NH2)", "test result": 68.3}

----------
procedure details: in vivo
applied conditions: male, mouse, liver, ip, 30 mg/kg
Non-standard residues stand in square brackets, D forms with d. Residues, ends and D or L forms follow the SMILES beside them. Dmt = Cc1cc(O)cc(C)c1C[C@H](N)C(=O)O
measurement kind: Tmax (h)

{"compound": "Cc1cc(O)cc(C)c1C[C@H](NC(=O)[C@H](N)CCCNC(=N)N)C(=O)N[C@@H](CCCCN)C(=O)N[C@@H](Cc1ccccc1)C(N)=O [SS-31, D-Arg-dimethylTyr-Lys-Phe-NH2] (H-[dR][Dmt]KF-NH2)", "measurement kind": "Tmax", "quantity unit": "h", "test result": 1}
